target: human ETA receptors (Homo sapiens); test: Inhibition of endothelin binding to recombinant ETA receptors; conditions: 125I-endothelin 20 pM; 20° C. for 2 hours or 4° C. for 24 hours; baculovirus-insect cell membranes; read-out: IC50 (concentration required to inhibit 50% of the specific binding of 125I-endothelin)
Sequence (P25101 21-427): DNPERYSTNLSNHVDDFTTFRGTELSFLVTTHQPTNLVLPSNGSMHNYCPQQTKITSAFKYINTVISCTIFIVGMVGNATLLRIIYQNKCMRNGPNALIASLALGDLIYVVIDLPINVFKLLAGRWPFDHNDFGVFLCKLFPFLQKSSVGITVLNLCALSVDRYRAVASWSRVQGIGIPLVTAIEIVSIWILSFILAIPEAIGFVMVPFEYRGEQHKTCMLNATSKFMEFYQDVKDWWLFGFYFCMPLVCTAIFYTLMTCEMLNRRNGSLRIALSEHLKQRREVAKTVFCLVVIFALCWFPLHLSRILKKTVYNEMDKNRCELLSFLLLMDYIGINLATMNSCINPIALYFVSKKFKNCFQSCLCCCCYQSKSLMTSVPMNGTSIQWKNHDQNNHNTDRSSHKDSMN
Rule: measured IC50 below 6 nM gets 1.0; anything equal to or greater than 6 nM gets 0.0.

Q) IC50 under 6 nM? Item: COc1ccc(Cl)c(Oc2c(NS(=O)(=O)c3ccc4c(c3)OCO4)ncnc2OCCOC(=O)OCc2ccccn2)c1 [Example 140]
A) 0.0

Q) IC50 under 6 nM? Item: COCCc1nc(NS(=O)(=O)c2ccc3c(c2)OCO3)c(Oc2cc(OC)ccc2Cl)c(OCCOC(=O)Nc2ccccn2)n1 [Example 10]
A) 1.0

Q) IC50 under 6 nM? Item: COc1ccccc1Oc1c(NS(=O)(=O)c2ccc(C(C)(C)C)cc2)nc(N2CCOCC2)nc1OCCOC(=O)Nc1ccco1 [Example 75]
A) 1.0

Q) IC50 under 6 nM? Item: COc1ccc(S(=O)(=O)Nc2ncnc(OCCOC(=O)Nc3ccccn3)c2Oc2ccccc2OC)cc1CCC(=O)N1CCOCC1 [Example 120]
A) 0.0

Q) IC50 under 6 nM? Item: COc1ccc(Cl)c(Oc2c(NS(=O)(=O)c3ccc(C(C)(C)C)cc3)ncnc2OCCNC(=O)Nc2ccncc2)c1 [Example 134]
A) 0.0
